Test system: 843126-344-R-J1-PDC complex spheroid viability
Test: Anticancer human tumor 843126-344-R-J1-PDC patient-derived melanoma cell line growth inhibition [POLQ]
Conditions: second compound 0.0316 µM; first compound 0.1 µM; stronger effect = lower value
endpoint_label: viability, T/C (%)

COc1cc(C2c3cc4c(cc3C(OC3OC5COC(C)OC5C(O)C3O)C3COC(=O)C23)OCO4)cc(OC)c1O (stereo not given) + Nc1ccc(C#CCN(C(=O)Cc2ncc(C(F)(F)F)cc2C(F)(F)F)c2ccc(F)cc2)nn1 : 78.3
CNCc1ccc(-c2[nH]c3cc(F)cc4c3c2CCNC4=O)cc1 + Cc1cccc(N(C)C(=O)C2C(O)CCN2c2nc(C)cc(C(F)(F)F)c2C#N)c1 : 84.1
CC(C)n1c(=O)n(C)c2cnc3cc(F)c(-c4ccc(OCCCN5CCCCC5)nc4)cc3c21 + Nc1ccc(C#CCN(C(=O)Cc2ncc(C(F)(F)F)cc2C(F)(F)F)c2ccc(F)cc2)nn1 : 74
COc1cccc(OCCCN)c1-c1cc(Nc2cnc(C#N)cn2)n[nH]1 + COC1C(OC(N)=O)C(O)C(Oc2ccc3c(O)c(NC(=O)c4ccc(O)c(CC=C(C)C)c4)c(=O)oc3c2C)OC1(C)C : 45.8
C=CC(=O)N1CCN(c2nc(=O)n(-c3c(C)ccnc3C(C)C)c3nc(-c4c(O)cccc4F)c(F)cc23)C(C)C1 (stereo not given) + Nc1ccc(C#CCN(C(=O)Cc2ncc(C(F)(F)F)cc2C(F)(F)F)c2ccc(F)cc2)nn1 : 82.8

---

System: 843126-344-R-J1-PDC complex spheroid viability
Assay: Anticancer human tumor 843126-344-R-J1-PDC cell line growth inhibition [POLQ]
Details: curve of first compound; second compound 10 µM
Description: Multicellular complex tumor spheroid response to Polymerase (POL) inhibitors (novobiocin, ART-558, RP6685) in combination with a variety of drugs and investigational agents in selected tumor cell lines The POL inhibitors (novobiocin, ART-558, and RP6685) were evaluated both individually and in combination with standard of care and investigational anticancer small molecules within a complex spheroid model of solid tumors. . […]
pIC50: −log10 of the molar value.
Listing: pIC50 of selected molecules
endpoint_label: pIC50

CC1COCCN1c1cc(C2(O)CC3CCC(C2)O3)c2cnn(-c3ccn[nH]3)c2n1 (stereo not given) + COC1C(OC(N)=O)C(O)C(Oc2ccc3c(O)c(NC(=O)c4ccc(O)c(CC=C(C)C)c4)c(=O)oc3c2C)OC1(C)C : 6.31
COc1cc(C2c3cc4c(cc3C(OC3OC5COC(C)OC5C(O)C3O)C3COC(=O)C23)OCO4)cc(OC)c1O (stereo not given) + COC1C(OC(N)=O)C(O)C(Oc2ccc3c(O)c(NC(=O)c4ccc(O)c(CC=C(C)C)c4)c(=O)oc3c2C)OC1(C)C : 5.11
CCc1c2c(nc3ccc(O)cc13)-c1cc3c(c(=O)n1C2)COC(=O)[C@]3(O)CC + COC1C(OC(N)=O)C(O)C(Oc2ccc3c(O)c(NC(=O)c4ccc(O)c(CC=C(C)C)c4)c(=O)oc3c2C)OC1(C)C : 6.31
CC1COCCN1c1cc(-c2ccnn2C)c2ccnc(-c3ccn[nH]3)c2n1 (stereo not given) + Nc1ccc(C#CCN(C(=O)Cc2ncc(C(F)(F)F)cc2C(F)(F)F)c2ccc(F)cc2)nn1 : 6.29

---

System: 843126-344-R-J1-PDC complex spheroid viability
Assay: Anticancer human tumor 843126-344-R-J1-PDC cell line growth inhibition [POLQ];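 on viability, T/C: spheroids exposed to drugs for seven days before readout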
Conditions: second compound 0.1 µM; first compound 3.16 µM; stronger effect = lower value
Listing: viability, T/C of selected compounds
endpoint_label: viability, T/C (%)

O=C(c1cc(Cc2n[nH]c(=O)c3ccccc23)ccc1F)N1CCN(C(=O)C2CC2)CC1 + Cc1cccc(N(C)C(=O)C2C(O)CCN2c2nc(C)cc(C(F)(F)F)c2C#N)c1 : 93.7
CC1COCCN1c1cc(C2(S(C)(=N)=O)CC2)nc(-c2ccnc3[nH]ccc23)n1 (configuration not stated) + Cc1cccc(N(C)C(=O)C2C(O)CCN2c2nc(C)cc(C(F)(F)F)c2C#N)c1 : 79.3
O=C(c1cc(Cc2n[nH]c(=O)c3ccccc23)ccc1F)N1CCN(C(=O)C2CC2)CC1 + COC1C(OC(N)=O)C(O)C(Oc2ccc3c(O)c(NC(=O)c4ccc(O)c(CC=C(C)C)c4)c(=O)oc3c2C)OC1(C)C : 80.7
CC1COCCN1c1cc(-c2ccnn2C)c2ccnc(-c3ccn[nH]3)c2n1 (configuration not stated) + Nc1ccc(C#CCN(C(=O)Cc2ncc(C(F)(F)F)cc2C(F)(F)F)c2ccc(F)cc2)nn1 : 43.5
O=C(c1cc(Cc2n[nH]c(=O)c3ccccc23)ccc1F)N1CCN(C(=O)C2CC2)CC1 + Nc1ccc(C#CCN(C(=O)Cc2ncc(C(F)(F)F)cc2C(F)(F)F)c2ccc(F)cc2)nn1 : 82.7
CNCc1ccc(-c2[nH]c3cc(F)cc4c3c2CCNC4=O)cc1 + COC1C(OC(N)=O)C(O)C(Oc2ccc3c(O)c(NC(=O)c4ccc(O)c(CC=C(C)C)c4)c(=O)oc3c2C)OC1(C)C : 99.7
CCc1cc2c(N3CCc4c(cc(Cn5ccnc5)cc4-c4cn(C)nc4C(F)(F)F)C3=O)ccnc2c(OC)n1 + Cc1cccc(N(C)C(=O)C2C(O)CCN2c2nc(C)cc(C(F)(F)F)c2C#N)c1 : 72.3
CNCc1ccc(-c2[nH]c3cc(F)cc4c3c2CCNC4=O)cc1 + Cc1cccc(N(C)C(=O)C2C(O)CCN2c2nc(C)cc(C(F)(F)F)c2C#N)c1 : 87.3
O=c1[nH]cc(F)c(=O)[nH]1 + COC1C(OC(N)=O)C(O)C(Oc2ccc3c(O)c(NC(=O)c4ccc(O)c(CC=C(C)C)c4)c(=O)oc3c2C)OC1(C)C : 82.7
C=CC(=O)N1CCN(c2nc(=O)n(-c3c(C)ccnc3C(C)C)c3nc(-c4c(O)cccc4F)c(F)cc23)C(C)C1 (configuration not stated) + Nc1ccc(C#CCN(C(=O)Cc2ncc(C(F)(F)F)cc2C(F)(F)F)c2ccc(F)cc2)nn1 : 99.2
CCc1cc2c(N3CCc4c(cc(Cn5ccnc5)cc4-c4cn(C)nc4C(F)(F)F)C3=O)cc(C)nc2c(OC)n1 + Nc1ccc(C#CCN(C(=O)Cc2ncc(C(F)(F)F)cc2C(F)(F)F)c2ccc(F)cc2)nn1 : 79.7
CNCc1ccc(-c2[nH]c3cc(F)cc4c3c2CCNC4=O)cc1 + Nc1ccc(C#CCN(C(=O)Cc2ncc(C(F)(F)F)cc2C(F)(F)F)c2ccc(F)cc2)nn1 : 94.3

---

Listing: viability, T/C of selected molecules
Tested on: 843126-344-R-J1-PDC complex spheroid viability
Experiment: Anticancer human tumor 843126-344-R-J1-PDC cell line growth inhibition [POLQ];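 on viability, T/C: spheroids exposed to drugs for seven days before readout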
Conditions: second compound 1 µM; first compound 0.1 µM; stronger effect = lower value
endpoint_label: viability, T/C (%)

CCc1cc2c(N3CCc4c(cc(Cn5ccnc5)cc4-c4cn(C)nc4C(F)(F)F)C3=O)ccnc2c(OC)n1 + Nc1ccc(C#CCN(C(=O)Cc2ncc(C(F)(F)F)cc2C(F)(F)F)c2ccc(F)cc2)nn1 : 99.3
O=C(c1cc(Cc2n[nH]c(=O)c3ccccc23)ccc1F)N1CCN(C(=O)C2CC2)CC1 + COC1C(OC(N)=O)C(O)C(Oc2ccc3c(O)c(NC(=O)c4ccc(O)c(CC=C(C)C)c4)c(=O)oc3c2C)OC1(C)C : 85
CCc1c2c(nc3ccc(O)cc13)-c1cc3c(c(=O)n1C2)COC(=O)[C@]3(O)CC + Cc1cccc(N(C)C(=O)C2C(O)CCN2c2nc(C)cc(C(F)(F)F)c2C#N)c1 : 60.9

---

Tested on: 843126-344-R-J1-PDC complex spheroid viability
Assay: Anticancer human tumor 843126-344-R-J1-PDC cell line growth inhibition [POLQ];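 on viability, T/C: spheroids exposed to drugs for seven days before readout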
Settings: second compound 10 µM; first compound 0.00316 µM; stronger effect = lower value
endpoint_label: viability, T/C (%)

Cn1ncnc1[C@H]1c2n[nH]c(=O)c3cc(F)cc(c23)N[C@@H]1c1ccc(F)cc1 + COC1C(OC(N)=O)C(O)C(Oc2ccc3c(O)c(NC(=O)c4ccc(O)c(CC=C(C)C)c4)c(=O)oc3c2C)OC1(C)C : 101
CCc1c2c(nc3ccc(O)cc13)-c1cc3c(c(=O)n1C2)COC(=O)[C@]3(O)CC + Cc1cccc(N(C)C(=O)C2C(O)CCN2c2nc(C)cc(C(F)(F)F)c2C#N)c1 : 64.8
Cn1ncnc1[C@H]1c2n[nH]c(=O)c3cc(F)cc(c23)N[C@@H]1c1ccc(F)cc1 + Nc1ccc(C#CCN(C(=O)Cc2ncc(C(F)(F)F)cc2C(F)(F)F)c2ccc(F)cc2)nn1 : 97
CCc1c2c(nc3ccc(O)cc13)-c1cc3c(c(=O)n1C2)COC(=O)[C@]3(O)CC + COC1C(OC(N)=O)C(O)C(Oc2ccc3c(O)c(NC(=O)c4ccc(O)c(CC=C(C)C)c4)c(=O)oc3c2C)OC1(C)C : 59.9
